- System: U251 CNS
- experimentalDetails: NCI tumour cell line growth inhibition, 48 h
Reported TGI by item:

# molecule, TGI
data = [
    ("CO[C@H]1c2cccc3cccc(c23)[C@@H]1n1[nH]c(=O)n(C(C)(C)C)c1=O", "> 100 µM"),
    ("NC(=O)C(=Cc1ccc(C(O)P(=O)(O)O)cc1)C(N)=O (centres undefined)", "> 100 µM"),
    ("Cc1ccc(-n2cnc3c(N)nc(N)nc32)cc1", "> 100 µM"),
    ("CCC(C)C(C(=O)N/N=C1/SCC(=O)N1c1ccccc1)C(=O)N/N=C1/SCC(=O)N1c1ccccc1 (centres undefined)", "> 100 µM"),
    ("CN(C)c1ccc(/C=N\\NC(=O)c2ccccc2Nc2ccccc2C(=O)N/N=C/c2ccc(N(C)C)cc2)cc1", "> 100 µM"),
    ("O=c1c(Oc2ccc(F)cc2F)cc2cnc(NC3CCOCC3)nc2n1C1CCS(=O)(=O)CC1", "> 25 µM"),
    ("CCOC(=O)CCC(NC(=O)c1ccc(CNc2nc3ccccc3nc2C(=O)OCC)cc1)C(=O)OCC (centres undefined)", "> 100 µM"),
    ("O=C(/C=C/c1ccc([N+](=O)[O-])o1)N1CCN(Cc2ccccc2)CC1", "28.1 µM"),
    ("COc1nc(C)nc2sc3c(c12)CCCC3", "> 100 µM"),
    ("O=c1c2cc(Cl)ccc2oc2ccc(OCCCCCN3CCCCC3)cc12", "12.7 µM"),
    ("ClCc1cccc(Cn2cnc3c(NC45CC6CC(CC(C6)C4)C5)ncnc32)c1", "30.8 µM"),
    ("COc1ccc(Nc2nnc(CCCCCCCCc3nnc(Nc4ccc(OC)cc4)o3)o2)cc1", "> 100 µM"),
    ("C=C1C(=O)O[C@H]2[C@H]1CC/C(CNC(=O)c1cc3cc(OC)ccc3[nH]1)=C\\CC[C@@]1(C)O[C@@H]21", "12.6 µM"),
    ("CC(=O)c1c(C)[nH]c(-c2nc3ccc(N4CCN(C)CC4)cc3[nH]2)c1-c1ccc(OCC2CCOCC2)cc1", "17.5 µM"),
]
